Data origin: patent US20240368135A1

Below, each entry is listed with its recorded pIC50.
Biological target: human NaV 1.8 (Homo sapiens)
Test: E-VIPR assay detecting and measuring NaV inhibition properties
Assay type: cell-based
Conditions: HEK cells expressing truncated human NaV 1.8; no human serum; read-out: IC50 in the E-VIPR Assay
pIC50: −log10 of the molar value.

Solved cases below.
compound | study-target | pIC50
COc1c([C@H]2[C@H](C(=O)Nc3ccc(C(N)=O)nc3)O[C@@](C)(C(F)(F)F)[C@H]2C)ccc(F)c1C(F)F (stereo in doubt) | human NaV 1.8 (Homo sapiens) | > 8.00
COc1c([C@H]2[C@H](C(=O)Nc3ccnc(C(C)(N)CO)c3)O[C@@](C)(C(F)(F)F)[C@H]2C)ccc(F)c1F (single isomer, unassigned) | human NaV 1.8 (Homo sapiens) | > 8.00
CCOc1c([C@@H]2C[C@](C)(C(F)(F)F)O[C@H]2C(=O)Nc2ccnc(C(O)CO)c2)ccc(F)c1F (single isomer, unassigned) | human NaV 1.8 (Homo sapiens) | 7.00 to 8.00
COC[C@@H](O)Cc1cc(NC(=O)[C@@H]2O[C@@](C)(C(F)(F)F)[C@@H](C)[C@H]2c2ccc(F)c(F)c2OC)ccn1 | human NaV 1.8 (Homo sapiens) | > 8.00
C[C@@H]1CN(C)CC(=O)N1c1cc(NC(=O)[C@@H]2O[C@@](C)(C(F)(F)F)[C@@H](C)[C@H]2c2ccc(F)c(F)c2OC(F)F)ccn1 | human NaV 1.8 (Homo sapiens) | > 8.00

# evaluate next
Would you mind telling me what pIC50 value was observed for CC(C)Oc1c(C2C(C(=O)Nc3cc(S(C)(=O)=O)ccn3)OC(C)(C(F)(F)F)C2C)ccc(F)c1F (stereo not drawn) [Compound 116] ?
6.00 to 7.00

----------
Target: human NaV 1.8 (Homo sapiens, UniProt Q9Y5Y9)
Sequence (Q9Y5Y9 126-399 limits assumed): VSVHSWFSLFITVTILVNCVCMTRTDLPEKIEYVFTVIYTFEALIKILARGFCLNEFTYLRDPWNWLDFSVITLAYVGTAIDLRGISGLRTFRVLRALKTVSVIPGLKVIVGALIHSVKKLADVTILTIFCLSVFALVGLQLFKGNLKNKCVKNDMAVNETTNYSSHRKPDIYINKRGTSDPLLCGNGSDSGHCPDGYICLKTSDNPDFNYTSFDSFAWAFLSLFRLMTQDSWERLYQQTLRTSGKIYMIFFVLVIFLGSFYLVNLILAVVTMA
Sequence (Q9Y5Y9 660-890 limits assumed): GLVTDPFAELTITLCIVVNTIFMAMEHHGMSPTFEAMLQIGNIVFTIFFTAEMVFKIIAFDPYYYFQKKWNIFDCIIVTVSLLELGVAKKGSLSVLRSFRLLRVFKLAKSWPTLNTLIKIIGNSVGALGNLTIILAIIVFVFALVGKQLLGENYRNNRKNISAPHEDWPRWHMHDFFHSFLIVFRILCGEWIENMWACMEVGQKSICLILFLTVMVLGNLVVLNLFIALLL
Sequence (Q9Y5Y9 1148-1722 limits assumed): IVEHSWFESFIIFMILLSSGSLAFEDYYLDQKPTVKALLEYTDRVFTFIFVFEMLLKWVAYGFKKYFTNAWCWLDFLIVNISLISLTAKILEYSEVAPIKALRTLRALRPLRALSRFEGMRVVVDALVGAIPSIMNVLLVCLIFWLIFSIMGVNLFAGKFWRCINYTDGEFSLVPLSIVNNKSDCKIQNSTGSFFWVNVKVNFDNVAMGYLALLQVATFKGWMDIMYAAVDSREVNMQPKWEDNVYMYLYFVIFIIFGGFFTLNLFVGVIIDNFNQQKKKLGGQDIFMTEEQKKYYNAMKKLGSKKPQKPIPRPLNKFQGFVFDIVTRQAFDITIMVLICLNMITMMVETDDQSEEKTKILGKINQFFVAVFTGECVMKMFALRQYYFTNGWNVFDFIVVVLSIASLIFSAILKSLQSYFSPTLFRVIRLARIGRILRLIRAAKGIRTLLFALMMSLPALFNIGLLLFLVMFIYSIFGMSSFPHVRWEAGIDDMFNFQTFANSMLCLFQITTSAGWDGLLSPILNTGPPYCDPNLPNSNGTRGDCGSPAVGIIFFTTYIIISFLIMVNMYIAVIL
Assay: E-VIPR assay detecting and measuring NaV inhibition properties
Type: cell-based
Settings: HEK cells expressing truncated human NaV 1.8; no human serum; read-out: IC50 in the E-VIPR Assay
property-measured: IC50

Solved cases below.
compound | IC50
Cc1ncc(NC(=O)[C@@H]2O[C@@](C)(C(F)(F)F)[C@@H](C)[C@H]2c2ccc(F)c(F)c2OCCO)cn1 | 100 to 1000 nM
Cc1ccc(NC(=O)C2OC(C)(C(F)(F)F)C(C)C2c2ccc(F)c(F)c2OC2CC(O)C2)cn1 (stereo not shown) | 10 to 100 nM
COc1c([C@H]2[C@H](C(=O)Nc3ccnc(C4COCCN4)c3)O[C@@](C)(C(F)(F)F)[C@H]2C)ccc(F)c1F (single isomer, unassigned) | 10 to 100 nM

Entry `COc1c([C@H]2[C@H](C(=O)Nc3ccc(-c4ccccn4)nc3)O[C@@](C)(C(F)(F)F)[C@H]2C)ccc(F)c1F` , system human NaV 1.8 (Homo sapiens, UniProt Q9Y5Y9): what IC50 was measured?
≥ 1000 nM

----------
Target: human NaV 1.8 (Homo sapiens, UniProt Q9Y5Y9)
Assay: E-VIPR assay detecting and measuring NaV inhibition properties
Assay type: cell-based
Details: HEK cells expressing truncated human NaV 1.8; no human serum; read-out: IC50 in the E-VIPR Assay
pIC50: −log10 of the molar value.
property-measured: pIC50

Solved cases below.
molecule | pIC50
COc1c([C@H]2[C@H](C(=O)Nc3ccnc(N(C)CCO)c3)O[C@@](C)(C(F)(F)F)[C@H]2C)ccc(F)c1F | 7.00 to 8.00
COc1c([C@H]2[C@H](C(=O)Nc3ccnc(N4CCC(N(C)C)C4=O)c3)O[C@@](C)(C(F)(F)F)[C@H]2C)ccc(F)c1F (single isomer, unassigned) | 7.00 to 8.00
C[C@H]1[C@@H](c2ccc(F)c(F)c2OCCO)[C@H](C(=O)Nc2cnsc2)O[C@@]1(C)C(F)(F)F | 7.00 to 8.00

Would you mind telling me what pIC50 value was observed for `Cc1ncc(NC(=O)[C@@H]2O[C@@](C)(C(F)(F)F)[C@@H](C)[C@H]2c2ccc(F)c(F)c2OCCO)c(C)n1` ?
≤ 6.00

Would you mind telling me what pIC50 value was observed for COc1c(C2C(C(=O)Nc3ccc(C(N)=O)nc3)OC(C)(C(F)(F)F)C2C)ccc(C(F)F)c1F (stereo not shown) [Compound 159] ?
≤ 6.00

Would you mind telling me what pIC50 value was observed for `COc1c([C@H]2[C@H](C(=O)NCCc3c(C)noc3C)O[C@@](C)(C(F)(F)F)[C@H]2C)ccc(F)c1F` ?
≤ 6.00

Would you mind telling me what pIC50 value was observed for `COc1c([C@H]2[C@H](C(=O)Nc3ccnc(N4C(=O)CN(C)C[C@H]4CO)c3)O[C@@](C)(C(F)(F)F)[C@H]2C)ccc(F)c1F` ?
> 8.00

----------
Biological target: human NaV 1.8 (Homo sapiens)
Assay: E-VIPR assay detecting and measuring NaV inhibition properties
Format: cell-based
Settings: HEK cells expressing truncated human NaV 1.8; no human serum; read-out: IC50 in the E-VIPR Assay
Description: Sodium ion channels are voltage-dependent proteins that can be activated by inducing membrane voltage changes by applying electric fields. The electrical stimulation instrument and methods of use, referred to as E-VIPR, are described in International Publication No. WO 2002/008748 A3 and C.-J. Huang et al. Characterization of voltage-gated sodium channel blockers by electrical stimulation and fluorescence detection of membrane potential, 24 Nature Biotech. […]
property-measured: IC50

Would you mind telling me what IC50 value was observed for COc1c([C@H]2[C@H](C(=O)Nc3ccnc(N4C(=O)CN(C)C[C@@H]4C)c3)O[C@@](C)(C(F)(F)F)[C@H]2C)ccc(F)c1F [Compound 469] ?
< 10 nM

Would you mind telling me what IC50 value was observed for COc1c([C@H]2[C@H](C(=O)Nc3ccnc(C4(N)CCOC4)c3)O[C@@](C)(C(F)(F)F)[C@H]2C)ccc(F)c1F (single isomer, unassigned) [Compound 346] ?
< 10 nM

Would you mind telling me what IC50 value was observed for Cc1nn(C2COC2)cc1NC(=O)[C@@H]1O[C@@](C)(C(F)(F)F)[C@@H](C)[C@H]1c1ccc(F)c(F)c1OCCN1CCOCC1 [Compound 594] ?
100 to 1000 nM

Would you mind telling me what IC50 value was observed for Cc1oncc1NC(=O)C1OC(C)(C(F)(F)F)C(C)C1c1ccc(F)c(F)c1OC1CC(O)C1 (stereo not drawn) [Compound 656] ?
10 to 100 nM

Would you mind telling me what IC50 value was observed for COc1c([C@H]2[C@H](C(=O)Nc3ccnc(C(O)C4CC4)c3)O[C@@](C)(C(F)(F)F)[C@H]2C)ccc(F)c1F (single isomer, unassigned) [Compound 251] ?
< 10 nM

----------
Target: human NaV 1.8 (Homo sapiens, UniProt Q9Y5Y9)
Assay: E-VIPR assay detecting and measuring NaV inhibition properties
Format: cell-based
Conditions: HEK cells expressing truncated human NaV 1.8; no human serum; read-out: IC50 in the E-VIPR Assay
Below, each entry is listed with its recorded IC50.

Solved cases below.
compound | study-target | IC50
COc1c([C@H]2[C@H](C(=O)NCCN3CCNC(=O)C3)O[C@@](C)(C(F)(F)F)[C@H]2C)ccc(F)c1F | human NaV 1.8 (Homo sapiens, UniProt Q9Y5Y9) | ≥ 1000 nM
COCC(C)(C)NCc1cc(NC(=O)[C@@H]2O[C@@](C)(C(F)(F)F)[C@@H](C)[C@H]2c2ccc(F)c(F)c2OC)ccn1 | human NaV 1.8 (Homo sapiens, UniProt Q9Y5Y9) | 10 to 100 nM
COc1c([C@H]2[C@H](C(=O)Nc3ccnc([S+](C)[O-])c3)O[C@@](C)(C(F)(F)F)[C@H]2C)ccc(F)c1F (single isomer, unassigned) | human NaV 1.8 (Homo sapiens, UniProt Q9Y5Y9) | < 10 nM
COc1c([C@@H]2[C@@H](C(=O)Nc3ccc(C(N)=O)nc3)O[C@](C)(C(F)(F)F)[C@@H]2C)cccc1C(F)(F)F (stereo in doubt) | human NaV 1.8 (Homo sapiens, UniProt Q9Y5Y9) | ≥ 1000 nM
COc1c([C@H]2[C@H](C(=O)Nc3ccnc(N4C(=O)CN5CCC4CC5)c3)O[C@@](C)(C(F)(F)F)[C@H]2C)ccc(F)c1F | human NaV 1.8 (Homo sapiens, UniProt Q9Y5Y9) | 10 to 100 nM

Would you mind telling me what IC50 value was observed for `CNCC(=O)Nc1cc(NC(=O)[C@@H]2O[C@@](C)(C(F)(F)F)[C@@H](C)[C@H]2c2ccc(F)c(F)c2OC)ccn1` ?
10 to 100 nM

Would you mind telling me what IC50 value was observed for CN=S(C)(=O)c1cc(NC(=O)[C@@H]2O[C@@](C)(C(F)(F)F)[C@@H](C)[C@H]2c2ccc(F)c(F)c2OC)ccn1 (relative stereo) ?
< 10 nM

Would you mind telling me what IC50 value was observed for `COc1c([C@H]2[C@H](C(=O)Nc3ccc(-n4ccnc4)nc3)O[C@@](C)(C(F)(F)F)[C@H]2C)ccc(F)c1F` ?
10 to 100 nM
